Target: PD-1 (human) (UniProt Q15116)
Sequence (Q15116 25-288): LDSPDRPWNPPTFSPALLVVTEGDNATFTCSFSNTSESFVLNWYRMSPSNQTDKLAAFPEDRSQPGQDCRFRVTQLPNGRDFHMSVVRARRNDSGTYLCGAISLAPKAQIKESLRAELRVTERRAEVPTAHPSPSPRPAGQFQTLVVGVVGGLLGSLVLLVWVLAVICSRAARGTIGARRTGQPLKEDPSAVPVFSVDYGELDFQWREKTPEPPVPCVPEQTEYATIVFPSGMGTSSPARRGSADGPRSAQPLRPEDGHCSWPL
Assay: cell-based or functional assay
Form field: Average Relative Luminescence Units (one value per entry).
Only the number, expressed in RLU, is required.

variant PD-L1 IgV-Fc A33D, V50A (Fc fusion) FTVTVPKDLYVVEYGSNMTIECKFPVEKQLDLDALIVYWEMEDKNIIQFAHGEEDLKVQHSSYRQRARLLKDQLSLGNAALQITDVKLQDAGVYRCMISYGGADYKRITVKVNAAAAEPKSSDKTHTCPPCPAPELLGGPSVFLFPPKPKDTLMISRTPEVTCVVVDVSHEDPEVKFNWYVDGVEVHNAKTKPCEEQYGSTYRCVSVLTVLHQDWLNGKEYKCKVSNKALPAPIEKTISKAKGQPREPQVYTLPPSREEMTKNQVSLTCLVKGFYPSDIAVEWESNGQPENNYKTTPPVLDSDGSFFLYSKLTVDKSRWQQGNVFSCSVMHEALHNHYTQKSLSLSPGK | 2250
variant PD-L1 IgV-Fc A33D, S75P (SEQ ID NO 285) (Fc fusion) FTVTVPKDLYVVEYGSNMTIECKFPVEKQLDLDALIVYWEMEDKNIIQFVHGEEDLKVQHSSYRQRARLLKDQLPLGNAALQITDVKLQDAGVYRCVISYGGADYKRITVKVNAAAAEPKSSDKTHTCPPCPAPELLGGPSVFLFPPKPKDTLMISRTPEVTCVVVDVSHEDPEVKFNWYVDGVEVHNAKTKPCEEQYGSTYRCVSVLTVLHQDWLNGKEYKCKVSNKALPAPIEKTISKAKGQPREPQVYTLPPSREEMTKNQVSLTCLVKGFYPSDIAVEWESNGQPENNYKTTPPVLDSDGSFFLYSKLTVDKSRWQQGNVFSCSVMHEALHNHYTQKSLSLSPGK | 2170
variant PD-L1 IgV-Fc A33D, S75P, D104G (Fc fusion) FTVTVPKDLYVVEYGSNMTIECKFPVEKQLDLDALIVYWEMEDKNIIQFVHGEEDLKVQHSSYRQRARLLKDQLPLGNAALQITDVKLQDAGVYRCMISYGGAGYKRITVKVNAAAAEPKSSDKTHTCPPCPAPELLGGPSVFLFPPKPKDTLMISRTPEVTCVVVDVSHEDPEVKFNWYVDGVEVHNAKTKPCEEQYGSTYRCVSVLTVLHQDWLNGKEYKCKVSNKALPAPIEKTISKAKGQPREPQVYTLPPSREEMTKNQVSLTCLVKGFYPSDIAVEWESNGQPENNYKTTPPVLDSDGSFFLYSKLTVDKSRWQQGNVFSCSVMHEALHNHYTQKSLSLSPGK | 2170
variant PD-L1 IgV-Fc S75P, K106R (Fc fusion) FTVTVPKDLYVVEYGSNMTIECKFPVEKQLDLAALIVYWEMEDKNIIQFVHGEEDLKVQHSSYRQRARLLKDQLPLGNAALQITDVKLQDAGVYRCMISYGGADYRRITVKVNAAAAEPKSSDKTHTCPPCPAPELLGGPSVFLFPPKPKDTLMISRTPEVTCVVVDVSHEDPEVKFNWYVDGVEVHNAKTKPCEEQYGSTYRCVSVLTVLHQDWLNGKEYKCKVSNKALPAPIEKTISKAKGQPREPQVYTLPPSREEMTKNQVSLTCLVKGFYPSDIAVEWESNGQPENNYKTTPPVLDSDGSFFLYSKLTVDKSRWQQGNVFSCSVMHEALHNHYTQKSLSLSPGK | 2130
variant PD-L1 IgV-Fc A33D, N45T, N78I (Fc fusion) FTVTVPKDLYVVEYGSNMTIECKFPVEKQLDLDALIVYWEMEDKTIIQFVHGEEDLKVQHSSYRQRARLLKDQLSLGIAALQITDVKLQDAGVYRCMISYGGADYKRITVKVNAAAAEPKSSDKTHTCPPCPAPELLGGPSVFLFPPKPKDTLMISRTPEVTCVVVDVSHEDPEVKFNWYVDGVEVHNAKTKPCEEQYGSTYRCVSVLTVLHQDWLNGKEYKCKVSNKALPAPIEKTISKAKGQPREPQVYTLPPSREEMTKNQVSLTCLVKGFYPSDIAVEWESNGQPENNYKTTPPVLDSDGSFFLYSKLTVDKSRWQQGNVFSCSVMHEALHNHYTQKSLSLSPGK | 1970

Entry variant PD-L1 IgV-Fc P6S, N45T, N78I, I83T (Fc fusion) FTVTVSKDLYVVEYGSNMTIECKFPVEKQLDLAALIVYWEMEDKTIIQFVHGEEDLKVQHSSYRQRARLLKDQLSLGIAALQTTDVKLQDAGVYRCMISYGGADYKRITVKVNAAAAEPKSSDKTHTCPPCPAPELLGGPSVFLFPPKPKDTLMISRTPEVTCVVVDVSHEDPEVKFNWYVDGVEVHNAKTKPCEEQYGSTYRCVSVLTVLHQDWLNGKEYKCKVSNKALPAPIEKTISKAKGQPREPQVYTLPPSREEMTKNQVSLTCLVKGFYPSDIAVEWESNGQPENNYKTTPPVLDSDGSFFLYSKLTVDKSRWQQGNVFSCSVMHEALHNHYTQKSLSLSPGK : reported Average Relative Luminescence Units = ?
2250

Entry variant PD-L1 IgV-Fc I20L, N45T, V110M (Fc fusion) FTVTVPKDLYVVEYGSNMTLECKFPVEKQLDLAALIVYWEMEDKTIIQFVHGEEDLKVQHSSYRQRARLLKDQLSLGNAALQITDVKLQDAGVYRCMISYGGADYKRITMKVNAAAAEPKSSDKTHTCPPCPAPELLGGPSVFLFPPKPKDTLMISRTPEVTCVVVDVSHEDPEVKFNWYVDGVEVHNAKTKPCEEQYGSTYRCVSVLTVLHQDWLNGKEYKCKVSNKALPAPIEKTISKAKGQPREPQVYTLPPSREEMTKNQVSLTCLVKGFYPSDIAVEWESNGQPENNYKTTPPVLDSDGSFFLYSKLTVDKSRWQQGNVFSCSVMHEALHNHYTQKSLSLSPGK : reported Average Relative Luminescence Units = ?
2210
